Molecular target: ER mimicking vesicles (20% PE, 66 & PC, 9% PI, 3% DOPS)
Assay: Equilibrium binding of peptides to ER mimicking vesicles by fluorescence anisotropy
Conditions: FA/FTI global fit; peptide concentrations 4 μM; N=1; read-out: affinity to ER mimicking vesicles

{"Chain": "EAIIRLWPLGLVLANTAMGVGSFQRK [Myo19^858-883, shorter peptide derived from Myo19 membrane motif]", "Target Of Assay": "ER mimicking vesicles (20% PE, 66 & PC, 9% PI, 3% DOPS)", "Value Unit": "µM", "Kd": 50.5}
